Assay read-out pIC50; system under study: RORγ ligand binding domain (LBD) (Homo sapiens (Human)).
Sequence (P51449 269-508): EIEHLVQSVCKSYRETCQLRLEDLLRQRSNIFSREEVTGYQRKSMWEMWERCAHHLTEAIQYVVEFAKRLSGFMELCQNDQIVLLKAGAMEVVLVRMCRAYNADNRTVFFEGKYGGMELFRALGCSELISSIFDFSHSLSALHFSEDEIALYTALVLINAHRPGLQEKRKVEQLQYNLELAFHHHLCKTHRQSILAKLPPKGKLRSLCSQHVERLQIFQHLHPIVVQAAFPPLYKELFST
Answers are plain numbers, as −log10 of the molar value.

# annotated cases, reported pIC50 shown
INSERT INTO results (smiles_structure, measured_target, experimental_readout, endpoint_value) VALUES
  ('CC(C)(C)c1cc(-c2sc(C(=O)N[C@H]3C[C@H](C(=O)O)C3)nc2CC2CCCCC2)cc(C(C)(C)F)c1', 'RORγ ligand binding domain (LBD) (Homo sapiens (Human))', 'pIC50', 6.50),
  ('C[C@H](NS(=O)(=O)c1ccc(-c2sc(C(=O)NC3CCOCC3)nc2CC2CCCCC2)c2ccccc12)C(F)(F)F', 'RORγ ligand binding domain (LBD) (Homo sapiens (Human))', 'pIC50', 6.90),
  ('CC(C)(C)c1cc(-c2sc(C(=O)N[C@H]3C[C@H](C(=O)O)C3)nc2CC2CCCCC2)cc(C(C)(C)C)[n+]1[O-]', 'RORγ ligand binding domain (LBD) (Homo sapiens (Human))', 'pIC50', 6.10);

Please report pIC50 for every entry that follows.
1. CC(C)(C)c1cc(-c2sc(C(=O)N[C@H]3C[C@H](C(=O)O)C3)nc2CC2CCCCC2)cc(C(C)(C)O)n1
2. CC(C)(C)c1cc(-c2sc(C(=O)N[C@H]3C[C@H](C(=O)O)C3)nc2CC2CCCCC2)cc(C(C)(C)O)c1
3. CC(C)(C)c1cc(-c2sc(C(=O)N[C@H]3C[C@H](C(=O)O)C3)[n+]([O-])c2CC2CCCCC2)cc(C(C)(C)C)n1
4. CC(C)(C)NS(=O)(=O)c1ccc(-c2sc(C(=O)N[C@H]3C[C@H](C(=O)O)C3)nc2CC2CCCCC2)c(OC(F)F)c1Cl

Result:
6.20
6.20
6.40
6.40

Query: I am curious: what pIC50 value has been reported for CCCc1nc(C(=O)N[C@H]2C[C@H](C(=O)O)C2)sc1-c1ccc(S(=O)(=O)NC(C)(C)C)c(Cl)c1Cl ?
Result: 6.70

* * *

Provide the reported pIC50 (FF) of each item.
- measured_target: RORγ (Homo sapiens, UniProt P51449)
- Sequence (P51449 whole entry, looked up, the tested form may be a part): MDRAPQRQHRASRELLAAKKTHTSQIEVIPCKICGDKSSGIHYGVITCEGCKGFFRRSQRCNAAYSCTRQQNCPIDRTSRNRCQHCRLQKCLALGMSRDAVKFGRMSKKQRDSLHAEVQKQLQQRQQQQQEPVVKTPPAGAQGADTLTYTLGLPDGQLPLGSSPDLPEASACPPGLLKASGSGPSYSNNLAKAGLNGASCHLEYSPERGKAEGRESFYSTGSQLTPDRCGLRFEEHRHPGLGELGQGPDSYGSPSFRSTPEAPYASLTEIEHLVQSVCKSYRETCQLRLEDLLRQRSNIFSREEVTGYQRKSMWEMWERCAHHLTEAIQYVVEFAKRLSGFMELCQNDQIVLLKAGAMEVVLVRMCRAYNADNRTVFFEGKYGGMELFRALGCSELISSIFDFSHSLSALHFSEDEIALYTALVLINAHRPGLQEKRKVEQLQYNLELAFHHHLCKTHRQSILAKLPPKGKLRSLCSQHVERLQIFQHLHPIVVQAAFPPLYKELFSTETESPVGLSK
- assay_procedure: RORγ Gal4 Reporter Gene Assay
- Format: cell-based

# annotated cases, reported pIC50 (FF) shown
INSERT INTO assay_data (smiles_structure, endpoint_value) VALUES
  ('N#CC1(NS(=O)(=O)c2ccc(-c3sc(C(=O)N4CC5(CCS(=O)(=O)CC5)C4)nc3CC3CCCCC3)c3ccccc23)CC1', '6.7/7.6/7.7'),
  ('CC(C)(C)NS(=O)(=O)c1ccc(-c2sc(C(=O)NN3CCOCC3)nc2CC2CCCCC2)c(Cl)c1Cl', '6.9/8.7/8.7'),
  ('CC(C)(C)NS(=O)(=O)c1ccc(-c2sc(C(=O)NC3CCS(=O)(=O)CC3)nc2CC2CCCCC2)c2ccncc12', '6.3/7.9/7.9'),
  ('CC(C)(C)NS(=O)(=O)c1ccc(-c2sc(C(=O)NN3CCS(=O)(=O)CC3)nc2CC2CCCCC2)c(Cl)c1Cl', '6.8/8.7/8.7'),
  ('CC(C)(C)NS(=O)(=O)c1ccc(-c2sc(NS(C)(=O)=O)nc2CC2CCCCC2)cc1C(F)(F)F', '6.0/6.5/6.6'),
  ('O=C(c1nc(CC2CCCCC2)c(-c2ccc(S(=O)(=O)N3CCOCC3)c3ccccc23)s1)N1CC2(CCS(=O)(=O)CC2)C1', '6.2/6.4/6.3');

Please report pIC50 (FF) for every entry that follows.
1. CC(C)(C)NS(=O)(=O)c1ccc(-c2oc(C(=O)NC3CCS(=O)(=O)CC3)nc2CC2CCC2)c2ccccc12
2. CNS(=O)(=O)c1ccc(-c2sc(C(=O)N3CC4(CCS(=O)(=O)CC4)C3)nc2CC2CCCCC2)c2ccccc12
3. CC(C)(C)NS(=O)(=O)c1ccc(-c2oc(C(=O)NC34CCC(C(=O)O)(CC3)CC4)nc2CC2CCCCC2)c2ccccc12

Result:
6.6/7.5/7.9
6.3/6.6/6.6
5.8/7.9/7.9
